Provenance of the data: PubChem BioAssay AID1745844

Tested on: rodent lifetime carcinogenesis bioassay, tumor incidence TD50
Experiment: carcinogenic potency in animals, long-term in vivo studies, CPDB compilation (AID 1745844)
Conditions: rat; strain Fischer 344; females; in drinking water; site: central nervous system; lesion: glial tumors (oligodendroglioma and astrocytoma); dosed 107 weeks; study length 107 weeks
reported.property: TD50 (mg/kg/day)

{"smiles.structure": "C=CC(N)=O", "reported.property": "TD50", "readout.number": 57.2}

====

Test system: rodent lifetime carcinogenesis bioassay, tumor incidence TD50
Experiment: carcinogenic potency in animals, long-term in vivo studies, CPDB compilation (AID 1745844)
Conditions: mouse; strain B6C3F1; males; in feed; site: all sites; lesion: malignant lymphoma, histiocytic type + malignant lymphoma, mixed type; dosed 103 weeks; study length 104 weeks

{"smiles.structure": "Cc1ccc(N=Nc2c(O)ccc3ccccc23)c([N+](=O)[O-])c1", "experimental.system": "rodent lifetime carcinogenesis bioassay, tumor incidence TD50", "result.units": "mg/kg/day", "TD50": 22700}

====

System: rodent lifetime carcinogenesis bioassay, tumor incidence TD50
Test: carcinogenic potency in animals, long-term in vivo studies, CPDB compilation (AID 1745844)
Conditions: mouse; strain Swiss; females; i.p.; site: any site (literature study); lesion: several types; types named in the paper; dosed 26 weeks; study length 76 weeks
reported.property: TD50 (mg/kg/day)

{"smiles.structure": "CNNCc1ccc(C(=O)NC(C)C)cc1", "reported.property": "TD50", "readout.number": 0.244}

====

Tested on: rodent lifetime carcinogenesis bioassay, tumor incidence TD50
Experiment: carcinogenic potency in animals, long-term in vivo studies, CPDB compilation (AID 1745844)
Conditions: mouse; strain CD-1 HaM/ICR; males; in feed; site: lung; lesion: several types; types named in the paper; dosed 68 weeks; study length 90 weeks
Activity calls are given as the source filed them. How the calls were made is not given here.
reported.property: TD50

{"smiles.structure": "Cc1ccccc1N", "reported.property": "TD50", "result": "1160 mg/kg/day (inactive)"}

====

Test system: rodent lifetime carcinogenesis bioassay, tumor incidence TD50
Assay: carcinogenic potency in animals, long-term in vivo studies, CPDB compilation (AID 1745844)
Settings: rat; strain Sprague-Dawley; females; in feed; site: mammary gland; lesion: adenocarcinoma; dosed 44 weeks; study length 66 weeks
reported.property: TD50

{"smiles.structure": "OCN(CO)c1nc(N(CO)CO)nc(N(CO)CO)n1", "reported.property": "TD50", "result": "10.2 mg/kg/day"}

====

Tested on: rodent lifetime carcinogenesis bioassay, tumor incidence TD50
Assay: carcinogenic potency in animals, long-term in vivo studies, CPDB compilation (AID 1745844)
Conditions: rat; strain Fischer 344; females; in feed; site: liver; lesion: hepatocellular carcinoma; dosed 104 weeks; study length 128 weeks

{"smiles.structure": "O=NO", "result.units": "mg/kg/day", "TD50": 629}

====

Tested on: rodent lifetime carcinogenesis bioassay, tumor incidence TD50
Test: carcinogenic potency in animals, long-term in vivo studies, CPDB compilation (AID 1745844)
Conditions: rat; strain BD IX; both sexes; in drinking water; site: nasal cavity; lesion: several types; types named in the paper; dosed 73 weeks; study length 79 weeks

{"smiles.structure": "CNC(=O)c1c(N(C)N=O)ncn1C", "experimental.system": "rodent lifetime carcinogenesis bioassay, tumor incidence TD50", "TD50": "1 mg/kg/day"}

====

Test system: rodent lifetime carcinogenesis bioassay, tumor incidence TD50
Experiment: carcinogenic potency in animals, long-term in vivo studies, CPDB compilation (AID 1745844)
Conditions: mouse; strain Swiss; females; in feed; site: liver; lesion: hepatocellular carcinoma; dosed 120 weeks; study length 120 weeks
Calls of active or inactive are those of the source. No rule for the calls is given here.

{"smiles.structure": "CN(Cc1cnc2nc(N)nc(N)c2n1)c1ccc(C(=O)N[C@@H](CCC(=O)O)C(=O)O)cc1", "TD50": "65.2 mg/kg/day (inactive)"}

====

System: rodent lifetime carcinogenesis bioassay, tumor incidence TD50
Experiment: carcinogenic potency in animals, long-term in vivo studies, CPDB compilation (AID 1745844)
Settings: rat; strain Fischer 344; females; in drinking water; site: esophagus; lesion: squamous-cell papilloma; dosed 45 weeks; study length 126 weeks

{"smiles.structure": "O=NN1CCOCC1", "experimental.system": "rodent lifetime carcinogenesis bioassay, tumor incidence TD50", "TD50 [mg/kg/day]": 2.53}

====

Test system: rodent lifetime carcinogenesis bioassay, tumor incidence TD50
Assay: carcinogenic potency in animals, long-term in vivo studies, CPDB compilation (AID 1745844)
Details: mouse; strain B6C3F1; males; by gavage; site: liver; lesion: hepatocellular adenoma + hepatocellular carcinoma + neoplastic nodule; dosed 103 weeks; study length 106 weeks
reported.property: TD50

{"smiles.structure": "C=CCOC(=O)c1ccccc1C(=O)OCC=C", "reported.property": "TD50", "result": "6680 mg/kg/day"}
{"smiles.structure": "BrC(Br)Br", "reported.property": "TD50", "result": "53.6 mg/kg/day"}

====

System: rodent lifetime carcinogenesis bioassay, tumor incidence TD50
Experiment: carcinogenic potency in animals, long-term in vivo studies, CPDB compilation (AID 1745844)
Conditions: rat; strain Osborne-Mendel; males; in feed; site: any site (literature study); lesion: several types; types named in the paper; dosed 108 weeks; study length 108 weeks
Activity calls are given as the source filed them. The rule behind the calls is not given here.

{"smiles.structure": "ClC1=C(Cl)[C@]2(Cl)[C@H]3[C@H]([C@@H]4C=C[C@H]3C4)[C@@]1(Cl)C2(Cl)Cl", "TD50": "4.21 mg/kg/day (inactive)"}

====

Test system: rodent lifetime carcinogenesis bioassay, tumor incidence TD50
Assay: carcinogenic potency in animals, long-term in vivo studies, CPDB compilation (AID 1745844)
Details: mouse; strain B6C3F1; females; inhaled; site: mammary gland; lesion: adenoma + carcinoma; dosed 104 weeks; study length 104 weeks

{"smiles.structure": "C=CC(=C)Cl", "TD50": "65.6 mg/kg/day"}

====

Overview of reported TD50 across a group of molecules:
Test system: rodent lifetime carcinogenesis bioassay, tumor incidence TD50
Assay: carcinogenic potency in animals, long-term in vivo studies, CPDB compilation (AID 1745844)
Details: mouse; strain B6C3F1; males; by gavage; site: liver; lesion: hepatocellular adenoma; dosed 103 weeks; study length 105 weeks

{"molecule": "ClC=C(Cl)Cl", "TD50": "855 mg/kg/day"}
{"molecule": "CC(Cl)CCl (stereo not drawn)", "TD50": "384 mg/kg/day"}
{"molecule": "C=CC(=O)NCO", "TD50": "50.2 mg/kg/day"}

====

Tested on: rodent lifetime carcinogenesis bioassay, tumor incidence TD50
Experiment: carcinogenic potency in animals, long-term in vivo studies, CPDB compilation (AID 1745844)
Details: rat; strain Fischer 344; males; in drinking water; site: any site (literature study); lesion: several types; types named in the paper; dosed 103 weeks; study length 104 weeks

{"smiles.structure": "F", "experimental.system": "rodent lifetime carcinogenesis bioassay, tumor incidence TD50", "result.units": "mg/kg/day", "TD50": 147}

====

System: rodent lifetime carcinogenesis bioassay, tumor incidence TD50
Assay: carcinogenic potency in animals, long-term in vivo studies, CPDB compilation (AID 1745844)
Conditions: mouse; strain NZO/BlGd; males; in drinking water; site: esophagus; lesion: several types; types named in the paper; dosed 32 weeks; study length 60 weeks

{"smiles.structure": "O=NN1CCCCCC1", "experimental.system": "rodent lifetime carcinogenesis bioassay, tumor incidence TD50", "TD50": "0.313 mg/kg/day"}

====

Test system: rodent lifetime carcinogenesis bioassay, tumor incidence TD50
Assay: carcinogenic potency in animals, long-term in vivo studies, CPDB compilation (AID 1745844)
Settings: mouse; strain B6C3F1; females; inhaled; site: Harderian gland; lesion: adenocarcinoma + adenoma + adenoma, bilateral; dosed 83 weeks; study length 104 weeks

{"smiles.structure": "C=CC=C", "experimental.system": "rodent lifetime carcinogenesis bioassay, tumor incidence TD50", "TD50": "26.2 mg/kg/day"}

====

Tested on: rodent lifetime carcinogenesis bioassay, tumor incidence TD50
Experiment: carcinogenic potency in animals, long-term in vivo studies, CPDB compilation (AID 1745844)
Conditions: rat; strain Fischer 344; males; in feed; site: liver; lesion: several types; types named in the paper; dosed 37 weeks; study length 104 weeks
reported.property: TD50 (mg/kg/day)

{"smiles.structure": "Cc1cccc(Nc2cc(Cl)nc(SCC(=O)O)n2)c1C", "reported.property": "TD50", "result.units": "mg/kg/day", "readout.number": 60}

====

Tested on: rodent lifetime carcinogenesis bioassay, tumor incidence TD50
Assay: carcinogenic potency in animals, long-term in vivo studies, CPDB compilation (AID 1745844)
Conditions: rat; strain Sprague-Dawley; females; in feed; site: mammary tissue, wider than the gland; lesion: one or several types; types not named; dosed 46 weeks; study length 66 weeks

{"smiles.structure": "NC(=O)NN=Cc1ccc([N+](=O)[O-])o1", "TD50": "7.12 mg/kg/day"}

====

System: rodent lifetime carcinogenesis bioassay, tumor incidence TD50
Assay: carcinogenic potency in animals, long-term in vivo studies, CPDB compilation (AID 1745844)
Settings: mouse; strain Swiss albino; females; in drinking water; site: liver; lesion: angiosarcoma; dosed 82 weeks; study length 82 weeks

{"smiles.structure": "CCNN", "TD50 (mg/kg/day)": 27.6}
